These entries and their values trace back to paper PMC11436793.

Target: T1, SBP-UNK ZnF1-6 (30-357) (human, UniProt Q9C0B0 30-357)
T1 sequence: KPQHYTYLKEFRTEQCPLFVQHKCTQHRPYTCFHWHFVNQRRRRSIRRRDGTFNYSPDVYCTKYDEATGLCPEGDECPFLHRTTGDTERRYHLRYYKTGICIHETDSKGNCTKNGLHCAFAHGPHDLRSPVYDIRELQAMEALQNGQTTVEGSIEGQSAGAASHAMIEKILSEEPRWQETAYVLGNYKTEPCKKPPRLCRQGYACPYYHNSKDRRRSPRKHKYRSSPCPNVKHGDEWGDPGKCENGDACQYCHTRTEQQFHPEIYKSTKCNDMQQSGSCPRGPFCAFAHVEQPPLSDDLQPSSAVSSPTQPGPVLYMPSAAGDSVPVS
Experiment: fluorescence polarization
pKd: recorded values
To interpret pKd, take it as minus log10 of a concentration measured in moles per litre.

binder: UUCAUCGCAUUAGACAUUUU (ssRNA) [Chi58-67 gtpb4 FP RNA]
val: 6.52

So for UACAUCGCAUUAGACAUUUU (ssRNA) [Human GTPB4 FP RNA] , the logged pKd turned out to be 6.58
